Form field: Papp (one value per entry).
- METHOD NOTES: passive permeability, PAMPA, ADME assay (AID 1508612)
- SETTINGS: pH 7.4, 30.0 min, 50.0 µM

Solved cases below.
INSERT INTO assay_data (query_smiles, observable, experimental_result) VALUES
  ('Cc1cccc(C)c1NC(=O)c1nc(SC(C)C)ncc1Cl', 'Papp', '> 1000 ×10⁻⁶ cm/s'),
  ('COc1ccc(S(=O)(=O)N2CCOCC2)cc1NC(=O)c1cccc(-n2cccc2)c1', 'Papp', '< 1 ×10⁻⁶ cm/s'),
  ('CC(C)COc1ccc(-c2ccc(=O)n(CC(=O)NCCc3ccccc3)n2)cc1', 'Papp', '> 1000 ×10⁻⁶ cm/s');

Read the next record carefully.
Entry under test: CC(=O)c1c(C)oc2ccc(N(C(=O)Oc3ccccc3)S(=O)(=O)c3ccccc3)cc12 . Its Papp was > 1000 ×10⁻⁶ cm/s
